- system: ULK1 kinase (Homo sapiens, UniProt O75385)
- Sequence (O75385 with tags, fused parts or gaps): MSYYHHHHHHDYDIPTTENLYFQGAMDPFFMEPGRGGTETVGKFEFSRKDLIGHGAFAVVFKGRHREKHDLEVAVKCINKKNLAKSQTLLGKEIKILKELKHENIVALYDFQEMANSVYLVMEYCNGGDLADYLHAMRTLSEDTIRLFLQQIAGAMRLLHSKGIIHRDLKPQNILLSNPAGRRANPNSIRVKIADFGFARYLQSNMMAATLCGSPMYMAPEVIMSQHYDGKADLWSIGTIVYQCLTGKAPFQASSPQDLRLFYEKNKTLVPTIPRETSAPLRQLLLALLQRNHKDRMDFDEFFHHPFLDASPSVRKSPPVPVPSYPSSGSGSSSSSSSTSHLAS
measurement-label: IC50

Completed entries (count: 3):
Cc1nn(C2CCN(C)CC2)cc1Nc1ncc(Br)c(NCCCN2CCCCC2=O)n1 [Example 51] = 1 to 25 nM
Cc1nn(C2CCN(C)CC2)cc1Nc1ncc(C(F)(F)F)c(NCCCN2CCCCC2=O)n1 [Example 8] = 1 to 25 nM
Cc1nn([C@@H]2CCNC2)cc1Nc1ncc(Cl)c(NCCCN2CCCC2=O)n1 [Example 158] = > 500 nM

Read the next record carefully.
Input line: What value of IC50 has been reported for the following molecule? Cc1nn([C@@H]2CCNC2)cc1Nc1ncc(Br)c(NCCCN2CCCC2=O)n1 [Example 164]
Output line: 100 to 500 nM

====

// reported pIC50 per item
- system: ULK1 kinase (Homo sapiens, UniProt O75385, E37A/K38A)
- Construct: (residues 1-283; ID NO: 2)
- test-protocol: Biochemical assay for ULK1.3 (coupled pyruvate kinase/lactate dehydrogenase assay)
- experimental-setup: 0.1 nM ULK1 (from Beryllium), peptide substrate, 1 mM ATP
pIC50: −log10 of the molar value.

Cc1nn(CCN(C)C)cc1Nc1ncc(C(F)(F)F)c(NCCCN2CCOCCC2=O)n1 = 6.30 to 7.00
CCc1nn(C2CCN(C(C)C)CC2)cc1Nc1ncc(Cl)c(NCCCN2CCCOC2=O)n1 = 6.30 to 7.00
Cc1nn([C@@H]2CCN(C)C2)cc1Nc1ncc(Cl)c(NCCCN2CCCOCC2=O)n1 = 6.30 to 7.00

Read the next record carefully.
Input line: API: value(readout= pIC50, system= ULK1 kinase (Homo sapiens, UniProt O75385, E37A/K38A), query= Cc1nn(C2CCN(C(C)C)CC2)cc1Nc1ncc(C2CC2)c(NCCCN2CCOCC2=O)n1 )
Output line: < 6.30

====

IC50 values recorded for ULK2 kinase (Homo sapiens, UniProt Q8IYT8)

Completed entries (count: 4):
Cc1nn(C2CCNCC2)cc1Nc1ncc(Br)c(NCCCN2CCCCC2=O)n1 = 0.025 to 0.1 µM
CN1CCC(n2cc(Nc3ncc(C(F)(F)F)c(NCCCN4CCCCCC4=O)n3)cn2)CC1 = 0.001 to 0.025 µM
Cc1nn(CCCN2CCOCC2)cc1Nc1ncc(C(F)(F)F)c(NCCCN2CCCCCC2=O)n1 = 0.1 to 0.5 µM
Cc1nn(C2CCNCC2)cc1Nc1ncc(C(F)(F)F)c(NCCCN2CCCCCC2=O)n1 = 0.001 to 0.025 µM

Input line: What value of IC50 has been reported for the following molecule? Cc1nn(C2CCN(C)CC2)cc1Nc1ncc(C(F)(F)F)c(NCCCN2CCCC2=O)n1
Output line: 0.025 to 0.1 µM

These measurements were taken from patent US11518758B2.
